# experimentalTarget: T1, mouse B7-H4 (mouse, UniProt Q7TSP5 25-257)
# T1 construct: whole, on cells; also called CHO-K1/m B7-H4; CHO-K1/mB7-H4
# T1 sequence (looked up): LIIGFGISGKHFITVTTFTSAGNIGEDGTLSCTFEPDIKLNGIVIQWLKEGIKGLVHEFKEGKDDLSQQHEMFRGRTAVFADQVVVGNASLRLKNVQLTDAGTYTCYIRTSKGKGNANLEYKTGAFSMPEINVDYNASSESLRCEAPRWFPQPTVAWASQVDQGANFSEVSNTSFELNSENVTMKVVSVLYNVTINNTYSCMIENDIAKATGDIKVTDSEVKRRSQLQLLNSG
# testMethodNotes: FACS, CHO-K1/m B7H4 cells [C]
Please respond with reported Maximum MFI for every item in the list.
Form entry: value (MFI) — number only.

Q: Provide measured Maximum MFI value, entry: PR002037 (antibody, human IgG1, kappa, V domains shown, also called 1025_B-1H11 clone) VH: QVQLVQSGAEVKKPGSSMRVSCKASEDTFSSYAISWVRQAPGQGLEWMGGTAPIFGTTNYAQKFQGRVTITADKSTSTAYMELSSLRSEDTAVYYCARGGPYFDYWGQGTLVTVSS VL: EIVMTQSPASLSVSPGERATLSCRASQSVSSNLAWYQQKPGQAPRLLIYGASTRATGIPARVSGGGSGTEFTLTISSLQSEDFAVYCCQQYKNWPFTFGPGTKLEIKR
Result: 1.69e+06

Q: Provide measured Maximum MFI value, entry: control antibody 1 (PR000157) (antibody, V domains shown, also called Positive control 1; 1D11.v1.9varC2) VH: EVQLVQSGAEVKKPGASVKVSCKASGYTFTSYWIGWVRQAPGQGLEWIGDIYPGGGYTNYNEKFKGRVTITRDTSTSTAYLELSSLRSEDTAVYYCARLAGSSYRGAMDSWGQGTLVTVSS VL: DIQMTQSPSSLSASVGDRVTITCKASQGFNKYVAWYQQKPGKAPKLLIYYTSTLQPGVPSRFSGSGSGRDYTLTISSLQPEDFATYYCLQYGDLLYAFGQGTKVEIKR
Result: 1.75e+06

Q: Provide measured Maximum MFI value, entry: PR001476 (antibody, human IgG1, kappa, V domains shown, anti-B7-H4 H2L2 recombinant fully human antibody, human IgG1 / kappa; also called 80C8-2E9 clone) VH: QVQLVESGGGVVQPGRSLRLSCAASGFTFRSFGMHWVRQAPGKGLEWVAVISYDGSNEYYADSVKGRFIISRDNSKDTLYLQMNSLRAGDTAVYYCAKGGGLRWYFAYWGQGTLVTVSS VL: EIVMTQSPATLSVSPGERATLSCRASQSISSNLGWYQQKPGQAPRLLIYGASTRATGIPARFSGSGSGTEFTLTISSLQSEDFAVYYCQQYNSWPPLTFGGGTKVEIKR
Result: 353000

Q: Provide measured Maximum MFI value, entry: PR002410 (antibody, human IgG1, kappa, V domains shown, anti-B7-H4 H2L2 recombinant fully human antibody, human IgG1 / kappa; also called PR002037 variant) VH: QVQLVQSGAEVKKPGSSMRVSCKASEDTFSSYAISWVRQAPGQGLEWMGGTAPIFGTTNYAQKFQGRVTITADKSTSTAYMELSSLRSEDTAVYYCARGGPYFDYWGQGTLVTVSS VL: EIVMTQSPASLSVSPGERATLSCRASQSVSSNLAWYQQKPGQAPRLLIYGASTRATGIPARVSGGGSGTEFTLTISSLQSEDFAVYYCQQYKNWPFTFGPGTKLEIKR
Result: 1.55e+06

From: patent US20230235090A1
